Assay: Competitive inhibition of Cytophaga hutchinsonii KMO using 5-Br-kynurenine as substrate assessed as decrease in NADPH consumption by UV/Vis spectrophotometer
RESULT_TYPE: Ki (µM)
Give just the number in µM; leave the unit off.

# Ki lookup, item "Nc1c(Br)cc(Br)cc1C(=O)C[C@H](N)C(=O)O"
1.5

# Ki lookup, item Nc1c(Cl)cc(Br)cc1C(=O)CC(N)C(=O)O (configuration not stated)
11

# Ki lookup, item "O=C(O)CNC(=O)c1ccc(Cl)c(Cl)c1"
34

# Ki lookup, item "COc1ccc(C(=O)NCC(=O)O)cc1OC"
1000

# Ki lookup, item Nc1c(Cl)cccc1C(=O)CC(N)C(=O)O (configuration not stated)
13.8

# Ki lookup, item Cc1cc(Br)cc(C(=O)CC(N)C(=O)O)c1N (configuration not stated)
10.2

# Ki lookup, item Cc1cccc(C(=O)CC(N)C(=O)O)c1N (configuration not stated)
8.6
